# EXPERIMENTAL SYSTEM: T1, hPD-1-Fc (human, UniProt Q15116 25-167)
# T1 construct: domain: IgV domain; also called human PD-1-Fc; not shown: human IgG1 Fc
# T1 sequence (Q15116 25-167 limits assumed): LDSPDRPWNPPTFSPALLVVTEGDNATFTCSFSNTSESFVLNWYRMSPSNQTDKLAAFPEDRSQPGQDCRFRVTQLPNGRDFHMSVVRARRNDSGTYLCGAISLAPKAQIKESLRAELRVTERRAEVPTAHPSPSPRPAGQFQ
# ASSAY TEXT: ELISA, hPD-1-Fc coated
Parameter: OD at 10 nM. Scope: all listed entries.
Answer in OD, number only, no unit symbol.

For orientation, consider the following solved cases.
>>> observed_result("32D11 (antibody, V domains shown) VH: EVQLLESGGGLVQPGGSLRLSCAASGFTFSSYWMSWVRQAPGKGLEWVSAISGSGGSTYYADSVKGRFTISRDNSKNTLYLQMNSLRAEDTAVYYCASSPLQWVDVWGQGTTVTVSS VL: DIQMTQSPSSLSASVGDRVTITCRASQSINIWLAWYQQKPGKAPKLLIYDASNLETGVPSRFSGSGSGTDFTLTISSLQPEDFATYYCQQGYSFPFTFGPGTKVDIK")
0.952
>>> observed_result("32D2 (antibody, V domains shown) VH: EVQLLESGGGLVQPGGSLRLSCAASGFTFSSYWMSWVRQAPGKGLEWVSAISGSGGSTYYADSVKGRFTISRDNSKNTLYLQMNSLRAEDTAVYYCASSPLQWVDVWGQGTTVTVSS VL: DIQMTQSPSSLSASVGDRVTITCRASQGISRWLAWYQQKPGKAPKLLIYEASTLQSGVPSRFSGSGSGTDFTLTISSLQPEDFATYYCQQAYSFPFTFGQGTKVDIK")
0.922

Next item in the queue.
Value of measured OD at 10 nM for the entry 39B11 (antibody, V domains shown) VH: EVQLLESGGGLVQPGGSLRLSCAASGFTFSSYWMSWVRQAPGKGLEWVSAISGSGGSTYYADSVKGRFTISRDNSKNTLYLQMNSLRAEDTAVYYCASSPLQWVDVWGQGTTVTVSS VL: DIQMTQSPSSLSASVGDRVTITCRASQSISSWLAWYQQKPGKAPKLLIYEASRLQSGVPSRFSGSGSGTDFTLTISSLQPEDFATYYCQQANSFPFTFGPGTKVDIK : 1.08
